test: Clearance in dog at 10 mg/kg, po; type: ADME, organism-based, Canis lupus familiaris; conditions: in vivo
property label: CL/F (mL/min/kg)
Numbers only; they are read as mL/min/kg.

# CL/F of [2H]C([2H])([2H])NC(=O)c1cnc(NC(=O)C2CC2)cc1Nc1cccc(-c2ncc(F)cn2)c1OC = 1.8

###

assay: Half life in dog liver microsomes; assay type: ADME, Canis lupus familiaris, Microsome
property label: half-life (h)
Numbers only; they are read as h.

# half-life of [2H]C([2H])([2H])NC(=O)c1cnc(NC(=O)C2CC2)cc1Nc1cccc(-c2ncc(F)cn2)c1OC = 1.48

###

assay: Clearance in rat at 10 mg/kg, po; format: ADME, organism-based; conditions: in vivo
property label: CL/F (mL/min/kg)
Numbers only; they are read as mL/min/kg.

# CL/F of [2H]C([2H])([2H])NC(=O)c1cnc(NC(=O)C2CC2)cc1Nc1cccc(-c2ncc(F)cn2)c1OC = 3.6

meta.source: ChEMBL document CHEMBL4765480
